# TARGET: high affinity nicotinic receptors
# EXPERIMENT DESCRIPTION: Inhibition of L-[3H]nicotine binding to mouse brain membrane preparations
# TEST CONTEXT: 10 nM L-[3H]nicotine, 2 hr at 4° C., mouse brain membranes, Ki calculated from IC50 by Cheng method
ASSAY READOUT: pKi
Notebook: values listed as pKi are -log10 of the concentration (mol/L).

[ask] Return reported pKi. Input compound: CNCC/C=C/c1cccnc1 [trans-meta-nicotine]
[reply] 7.68
